Test system: Pseudomonas aeruginosa
protocol: Antibacterial activity against Pseudomonas aeruginosa assessed as zone of inhibition at 1000 ug/ml measured after 24 hrs by cup plate method
Type: functional
condition-context: read-out: DIZ
What zone of inhibition at 1000 µg/mL was measured for each of the following?
Answers are plain numbers, in mm.

# count of solved cases: 3
| compound | result-units | zone of inhibition at 1000 µg/mL |
| --- | --- | --- |
| Cc1c(/C=N/Nc2nc3ccccc3[nH]2)c(=O)oc2cc(O)ccc12 | mm | 13 |
| O=c1oc2cc(O)ccc2cc1/C=N/Nc1nc2ccccc2[nH]1 | mm | 13 |
| O=C1CSC(c2cc3ccc(O)cc3oc2=O)N1Nc1nc2ccccc2[nH]1 (centres undefined) | mm | 13 |

Return reported zone of inhibition at 1000 µg/mL. Input compound: Cc1c(C2SCC(=O)N2Nc2nc3ccccc3[nH]2)c(=O)oc2cc(O)ccc12 (centres undefined) 13

---

protocol: Cytotoxicity against human WI-38 cells assessed as cell growth inhibition measured after 48 hrs by sulforhodamine B staining based analysis
Assay type: toxicity
What GI50 at 48 h was measured for each of the following?

# count of solved cases: 4
| smi | GI50 at 48 h |
| --- | --- |
| Cc1cn2c3ccccc3nc2c2c(=O)oc3ccccc3c12 | 68.2 µM |
| O=c1oc2ccccc2c2c(O)cn3c4ccccc4nc3c12 | 25.2 µM |
| CC(=O)n1c(-c2cc3ccccc3oc2=O)nc2ccccc21 | > 100 µM |
| O=c1oc2ccccc2cc1-c1nc2ccccc2n1C(=S)Nc1ccccc1 | 28 µM |

Return reported GI50 at 48 h. Input molecule: O=c1oc2ccccc2c2cc(O)n3c4ccccc4nc3c12 28.2 µM

---

What IC50 was measured for each of the following?
protocol: Anticancer activity against human U-87 MG cells assessed as cell growth inhibition measured after 72 hrs by MTT assay
Type: functional, cell-based, U-87MG ATCC
Numbers only, in nM.

| smi | reported-metric | test-result |
| --- | --- | --- |
| O=C(CCl)n1c(-c2cc3ccccc3oc2=O)nc2ccccc21 | IC50 | 340 |

Return reported IC50. Input compound: O=C(/C(Cl)=N/Nc1ccc(Cl)cc1Cl)n1c(-c2cc3ccccc3oc2=O)nc2ccccc21 290

---

Test system: SF-268
protocol: Anticancer activity against human SF-268 cells assessed as cell growth inhibition measured after 48 hrs by sulforhodamine B staining based analysis
Type: functional
reported-metric: GI50 (µM)
Answers are plain numbers, in µM.

| smi | test-result |
| --- | --- |
| CC(=O)n1c(-c2cc3ccccc3oc2=O)nc2ccccc21 | 31.5 |
| O=c1oc2ccccc2cc1-c1nc2ccccc2n1C(=S)Nc1ccccc1 | 0.06 |
| O=c1oc2ccccc2c2cc(O)n3c4ccccc4nc3c12 | 20.6 |

# map each molecule to its GI50
1. Cc1cn2c3ccccc3nc2c2c(=O)oc3ccccc3c12
2. O=c1oc2ccccc2c2c(O)cn3c4ccccc4nc3c12

1: 18.4; 2: 26.1

---

Test system: Shigella dysenteriae
protocol: Antibacterial activity against Shigella dysenteriae ATCC 49345 assessed as bacterial growth inhibition at 50 ug/ml incubated for 24 hrs relative to control
Type: functional
Parameters: scale not given: the % may be the effect or the level left
condition-context: dose 50 µg/ml
What Activity was measured for each of the following?
One number for each entry, in %.

| smi | target-system | result-units | Activity |
| --- | --- | --- | --- |
| O=c1oc2ccc(Cl)cc2cc1CSc1nc2ccc([N+](=O)[O-])cc2[nH]1 | Shigella dysenteriae | % | 100 |
| Cc1ccc2nc(SCc3cc4ccccc4oc3=O)[nH]c2c1 | Shigella dysenteriae | % | 100 |
| O=c1oc2ccccc2cc1CSc1nc2ccccc2[nH]1 | Shigella dysenteriae | % | 100 |

Return reported Activity. Input compound: O=c1oc2ccc(Br)cc2cc1CSc1nc2ccccc2[nH]1 100
